FYI, the data here is from patent US4536505A.

Target: lipoxygenase (Cavia porcellus)
Construct: Guinea pig peritoneal neutrophils; endogenous in cells
Sequence (A0A286X958 1-674): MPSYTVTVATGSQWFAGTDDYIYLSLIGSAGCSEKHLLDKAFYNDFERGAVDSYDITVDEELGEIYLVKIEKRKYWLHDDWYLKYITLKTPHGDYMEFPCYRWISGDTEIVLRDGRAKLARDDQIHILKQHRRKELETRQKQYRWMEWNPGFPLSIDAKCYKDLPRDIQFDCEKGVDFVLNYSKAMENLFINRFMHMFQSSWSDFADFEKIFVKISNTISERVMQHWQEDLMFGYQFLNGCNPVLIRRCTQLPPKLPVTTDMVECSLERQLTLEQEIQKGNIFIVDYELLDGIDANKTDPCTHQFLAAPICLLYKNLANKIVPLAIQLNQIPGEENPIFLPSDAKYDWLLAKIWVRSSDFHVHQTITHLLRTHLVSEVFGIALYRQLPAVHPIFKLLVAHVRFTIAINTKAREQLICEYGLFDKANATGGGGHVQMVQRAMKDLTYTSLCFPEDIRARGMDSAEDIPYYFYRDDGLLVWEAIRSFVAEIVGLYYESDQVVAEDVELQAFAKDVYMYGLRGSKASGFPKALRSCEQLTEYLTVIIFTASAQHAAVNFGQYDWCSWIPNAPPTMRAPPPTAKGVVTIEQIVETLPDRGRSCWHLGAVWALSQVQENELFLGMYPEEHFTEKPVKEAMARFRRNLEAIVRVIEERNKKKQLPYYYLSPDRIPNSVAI
Assay: lipoxygenase inhibition in guinea pig peritoneal neutrophils
Conditions: 14C-arachidonic acid (4 μM), A-23187 (2 μM), 37° C.; LTB4 and 5-HETE
pIC50: −log10 of the molar value.
quantity.kind: pIC50

For reference, reported pIC50 for O=C(O)CCCCc1cn(-c2cccnc2)c2ccc(Cl)cc12 stands at ~4.52
